- System: CEM-SS
- Protocol Details: Inhibition of HIV-1 replication in CEM-SS human lymphoblastoid cells in vitro
- Assay type: functional, cell-based
Quantity: EC50
Number first, unit second.

# lookup: EC50 of CCCc1cc(=O)oc2c3c(c4c(c12)OC(C)(C)C=C4)O[C@H](C)[C@@H](C)[C@@H]3O [CALANOLIDE A]
80 nM

###

Assignment: determine reported Max protection for the given compounds.
- Tested on: CEM-SS
- Protocol Details: Maximum protection of human T-lymphoblastic cells(CEM-SS) from cytopathic effects of HIV-1 by the compound
- Assay type: functional

Entry CCCc1cc(=O)oc2c3c(c4c(c12)OC(C)(C)C=C4)O[C@H](C)[C@@H](C)[C@@H]3O [CALANOLIDE A] has what Max protection?
100%

Moving on to CCCc1cc(=O)oc2c3c(c4c(c12)OC(C)(C)C=C4)O[C@H](C)[C@@H](C)[C@H]3O [(+)-CALANOLIDE B]
100%

Repeat with CCCc1cc(=O)oc2c3c(c4c(c12)OC(C)(C)C=C4)O[C@H](C)[C@H](C)[C@@H]3O [CALANOLIDE C]
30%

Repeat for the following compound: CCCc1cc(=O)oc2c3c(c4c(c12)OC(C)(C)C=C4)O[C@H](C)[C@@H](C)[C@H]3OC
35%

And then CCCc1cc(=O)oc2c3c(c4c(c12)OC(C)(C)C=C4)O[C@H](C)[C@@H](C)[C@@H]3OC(C)=O , what is it?
100%

Data credit: ChEMBL document CHEMBL1125492
